ASSAY SUMMARY: Distribution coefficient, logD of compound at pH 7.4
Format: physicochemical
ASSAY SETUP: octanol/water
MEASURED PARAMETER: logD

[A] COc1cc2ncnc(Nc3cnc(OCCC4CC4)nc3)c2cc1OCC1CCNCC1
[B] O=S(=O)(c1ccc(Nc2ncc(N3CCOCC3)c(Nc3ccccc3)n2)cc1)N1CCCCC1
Select one. Lower logD: A or B Record your answer as the label of the chosen record.
A
(A: 1.4, B: 4.5)

---

ASSAY SUMMARY: Intrinsic clearance in rat hepatocytes assessed per 10^6 cells
Type: ADME, cell-based, Hepatocyte
ASSAY SETUP: read-out: CLH
MEASURED PARAMETER: hepatocyte CLint (µL/min/1e6 cells)

{"columns": ["SMILES TEXT", "hepatocyte CLint / µL/min/1e6 cells"],
 "data": [
  ["CN(Cc1ccc2c(c1)CCCO2)c1nnc(-c2ccc(-c3ccccc3Cl)cc2)o1", 19]
]}

[A] CN(Cc1ccc2nccn2c1)c1nnc(-c2ncc(C(F)(F)F)cc2Cl)o1
[B] COc1cc2c(Nc3cnc(OCCCC4CCCC4)nc3)ncnc2cc1OCCCN1CCCCC1
Choose between A and B : whose measured hepatocyte CLint value is numerically larger? Record your answer as the label of the chosen record.
A
(A: 6 µL/min/1e6 cells, B: 2 µL/min/1e6 cells)

[a] CNC(=O)c1sc(N2CC3CC2(CNC(=O)c2c[nH]c4ncc(Cl)cc24)C3)nc1C(F)(F)F
[b] CNC(=O)C[C@@H](NC(=O)[C@@H](CCc1ccccc1)NC(=O)c1c(C)noc1-c1snnc1C)c1ccc(C(F)(F)F)cc1
[c] CN(Cc1ccc2nccn2c1)c1nnc(-c2ccc(OC3CCCC3)cc2)o1
[d] COc1cc2ncnc(Nc3cnc(OCCC4CC4)nc3)c2cc1OCC1CCNCC1
[e] CN(Cc1ccc2nccn2c1)c1nnc(-c2ccc(-c3ccccc3Cl)nc2)o1
Arrange by hepatocyte CLint, high to low. Answer with the labels in sequence, matching the requested order.
b, a, c, e, d

[1] CNc1nc(OCC2CCC2)nc2c1ncn2Cc1c(F)cccc1F
[2] CNC(=O)c1sc(N2CC3CC2(CNC(=O)c2c[nH]c4ncc(C)cc24)C3)nc1C(F)(F)F
Select one. Lower hepatocyte CLint: 1 or 2 Record your answer as the label of the chosen record.
2

[A] Cc1c(C(=O)Nc2ccc(Oc3ccnc4[nH]cc(-c5ccccc5)c34)c(F)c2)c(=O)n(-c2ccc(F)cc2)n1C
[B] CN(Cc1ccc2nccn2c1)c1nnc(-c2ccc(-c3ccccc3Cl)cc2)o1
Choose between A and B : whose measured hepatocyte CLint value is numerically larger? Record your answer as the label of the chosen record.
A

---

ASSAYED TARGET: UniProt:P30530
Sequence (P30530 whole entry): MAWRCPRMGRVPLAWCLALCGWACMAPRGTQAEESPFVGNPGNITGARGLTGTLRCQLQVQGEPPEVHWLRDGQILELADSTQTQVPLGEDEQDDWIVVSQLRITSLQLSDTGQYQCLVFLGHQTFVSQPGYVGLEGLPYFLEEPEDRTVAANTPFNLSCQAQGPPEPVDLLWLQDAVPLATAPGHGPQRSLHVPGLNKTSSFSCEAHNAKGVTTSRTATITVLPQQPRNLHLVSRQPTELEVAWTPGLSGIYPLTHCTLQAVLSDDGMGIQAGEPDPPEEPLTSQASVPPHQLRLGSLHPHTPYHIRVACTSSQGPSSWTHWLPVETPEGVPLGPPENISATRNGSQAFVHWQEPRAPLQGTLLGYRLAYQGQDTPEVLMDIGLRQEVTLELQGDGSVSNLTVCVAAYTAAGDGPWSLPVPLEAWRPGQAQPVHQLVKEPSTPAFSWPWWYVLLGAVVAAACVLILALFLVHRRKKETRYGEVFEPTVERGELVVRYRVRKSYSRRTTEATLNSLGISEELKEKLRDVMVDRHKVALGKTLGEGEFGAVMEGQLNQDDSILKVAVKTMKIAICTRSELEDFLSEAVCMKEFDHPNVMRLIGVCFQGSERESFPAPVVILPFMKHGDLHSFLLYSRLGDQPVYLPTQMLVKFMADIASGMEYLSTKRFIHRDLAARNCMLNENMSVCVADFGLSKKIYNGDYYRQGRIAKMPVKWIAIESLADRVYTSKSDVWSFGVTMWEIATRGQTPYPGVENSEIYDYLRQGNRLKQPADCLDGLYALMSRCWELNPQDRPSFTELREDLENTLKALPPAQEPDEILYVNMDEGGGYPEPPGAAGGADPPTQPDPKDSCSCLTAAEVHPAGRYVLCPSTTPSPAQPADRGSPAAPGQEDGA
ASSAY SUMMARY: Inhibition of GST-tagged AXL (unknown origin) ([…] residues) using Axltide (CKKSRGDYMTMQJG-acid) peptide as substrate preincubated for 30 mins followed by substrate and ATP addition at Km concentration measured after 180 mins by RapidFire LC-MS analysis
pIC50: −log10 of the molar value.
MEASURED PARAMETER: pIC50

Below, 6 compounds whose answers are already recorded.
{"columns": ["SMILES TEXT", "ASSAYED TARGET", "RESULT VALUE"],
 "data": [
  ["Cc1cc(N(C)C)ccc1-c1nnc(N(C)Cc2ccc3nccn3c2)o1", "UniProt:P30530", 4.80],
  ["CN(Cc1ccc2nccn2c1)c1nnc(-c2ccc(-c3ccccc3Cl)nc2)o1", "UniProt:P30530", 5.50],
  ["C[C@@H]1CN(c2cnc(Nc3cc(F)c(OCC4CC4)c(F)c3)nc2NC2CCOCC2)CCN1", "UniProt:P30530", 5.80],
  ["O=S(=O)(c1ccc(Nc2ncc(N3CCOCC3)c(Nc3ccccc3)n2)cc1)N1CCCCC1", "UniProt:P30530", 6.70],
  ["CN(Cc1ccc2nccn2c1)c1nnc(-c2ccc(OC3CCCC3)cc2)o1", "UniProt:P30530", 5.40],
  ["CN(Cc1ccc2c(c1)CCCO2)c1nnc(-c2ccc(-c3ccccc3Cl)cc2)o1", "UniProt:P30530", 6.40]
]}

[1] Cc1c(C(=O)Nc2ccc(Oc3ccnc4[nH]cc(-c5ccccc5)c34)c(F)c2)c(=O)n(-c2ccc(F)cc2)n1C
[2] COc1cc2ncnc(Nc3cnc(OCCC4CC4)nc3)c2cc1OCC1CCNCC1
Choose between 1 and 2 : whose measured pIC50 value is numerically larger? Record your answer as the label of the chosen record.
1
(1: 8.50, 2: 5.50)

[A] CNC(=O)C[C@@H](NC(=O)[C@@H](CCc1ccccc1)NC(=O)c1c(C)noc1-c1snnc1C)c1ccc(C(F)(F)F)cc1
[B] CCn1c(-c2nnc(N(C)Cc3ccc4nccn4c3)o2)nc2ccccc21
Select one. Lower pIC50: A or B Record your answer as the label of the chosen record.
B
(B: 4.40, A: 7.80)

Cited source: ChEMBL document CHEMBL4732252
